Catalogue of %Inh readings, one per entry.
System: CDKL5
Details: concentration: 1 μM, replicates: in singlicate; n = 1
All answers are understood in %, so give the number only.

Write down measured %Inh (CDKL5) for this compound. COc1cc(Nc2nccc(N3CCC(NC(=O)C(C)c4ccc(Cl)cc4)C3)n2)cc(OC)c1OC (stereo not drawn)
0

Please report the measured %Inh for O=C(Nc1n[nH]c2nc(-c3ccccc3)c(Cl)cc12)C1CC1 tested on CDKL5.
0

Recall the reported %Inh of COc1cccc(C2=C(N(C)c3ccccc3)C(=O)NC2=O)c1 when tested on CDKL5.
0

System CDKL5. Read-out %Inh. Item COc1cc2ncn(-c3cc(OCc4ccc(S(C)(=O)=O)cc4)c(C(N)=O)s3)c2cc1OC . Report value.
15

Look up and report %Inh, with CDKL5 as system, for O=C(NCCNc1ccnc(Nc2ccc(F)cc2)n1)Nc1ccc2c(c1)OCO2
4

Report its %Inh with CDKL5 as the test system: CN(C)c1cc(-c2ccc3c(N)n[nH]c3c2)nc(N)n1
0

* * *

System: GSK3A;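 further: kd values determined as follow-up on hits from a single-replicate KINOMEscan panel screen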
Endpoint Label: pKd
Please express pKd as -log10 of the molar concentration.

Recorded pKd, per entry:
CCCC(=O)Nc1n[nH]c2ncc(-c3cccc4ccccc34)cc12 ... 6.44
CCS(=O)c1ccc(-c2coc3ccc(-c4nnc(C)o4)cc23)cc1 (stereo not drawn) ... 6.59
O=C(Nc1n[nH]c2nc(-c3ccccc3)c(Br)cc12)C1CC1 ... 6.39
Nc1n[nH]c2nnc(-c3ccccc3)c(-c3ccccc3)c12 ... 6.52

Tell me its pKd given COc1ccc(-c2coc3ccc(-c4nnc(SCc5cccc(C#N)c5)o4)cc23)cc1 as the entry.
6.82

Note down pKd recorded for O=C(Nc1n[nH]c2nc(-c3ccccc3)c(Cl)cc12)C1CC1
6.41

* * *

Test system: AURKA
Conditions: concentration: 1 μM, replicates: in singlicate; n = 1
Endpoint Label: %Inh (%)
Reply numerically in %, unit not repeated.

CCC(=O)c1c(-c2ccccc2)c2cc(Cl)ccc2c(=O)n1Cc1cc(S(C)(=O)=O)n(CCC(C)(C)O)n1 ... 16
CN(C)c1cc(-c2ccc3c(N)n[nH]c3c2)nc(N)n1 ... 0
O=C(NCc1cccs1)c1cc(C(=O)c2c(Cl)cccc2Cl)c[nH]1 ... 0
CN1C(=O)C(Nc2ccccc2)=C(c2ccccc2)C1=O ... 0

Please look at COc1ccc(-c2cc3c(C)nc(N)nc3n([C@H]3CC[C@H](O)CC3)c2=O)cn1 and tell me its recorded %Inh on AURKA.
0

Report its %Inh with AURKA as the test system: CCC(=O)c1c(-c2ccccc2)c2cc(Cl)ccc2c(=O)n1Cc1cc(S(C)(=O)=O)n(CC(N)=O)n1
0

Write %Inh of CCc1nc(-c2cccc(C)c2)c(-c2ccncc2)s1 ; system used: AURKA
0

State %Inh (AURKA) of CC(C)(C)c1ccc(C(=O)Nc2cn3cc(-c4ccccc4)ccc3n2)cc1 .
48

Enter measured %Inh, system AURKA, for the molecule shown: COc1cccc(-n2cnc3c(N)ncnc32)c1
0

* * *

Tested on: DAPK1
Settings: concentration: 1 μM, replicates: in singlicate; n = 1
# %Inh per entry
API: value field is a number in %; no unit string.

Tell me %Inh reported for Cc1nnc(-c2ccc(C)c(-c3ccc(C(=O)O)cc3)c2)o1 [GW608005]
0

Look up %Inh of COc1cccc(-n2cnc3c(N)ncnc32)c1 [SKF-97416] and report it.
15

Supply recorded %Inh for O=C(Nc1n[nH]c2nc(-c3ccccc3)c(Cl)cc12)C1CC1 [SB-734909] here.
9

Determine from records and report %Inh for Cc1ccccc1COc1cc(-n2cnc3cc(Cl)ccc32)sc1C(N)=O [GW813349]
0

Write down %Inh measured for item COC(=O)c1c(-c2ccccc2)c2cc(Br)ccc2c(=O)n1Cc1ccc(NC(=O)CCC(=O)O)cc1
0

Dear colleague, please send me the reported %Inh for Nc1n[nH]c2nnc(-c3ccccc3)c(-c3ccccc3)c12 [GW554060] when you can.
0

Note %Inh for the compound shown: CN1C(=O)C(Nc2cc(Cl)c(O)c(Cl)c2)=C(c2ccc(Cl)cc2)C1=O [SB-404321]
0

State its %Inh for this compound: COC(=O)c1c(-c2ccccc2)c2cc(Br)ccc2c(=O)n1Cc1ccc(S(C)(=O)=O)cc1
0

Give the measured %Inh for COc1cc2nccc(Nc3cccc(Oc4ccccc4)c3)c2cc1OC.Cl [GW284543]
0

Quickly give me recorded %Inh for Nc1ncnc2c1ncn2-c1cccc(F)c1 [SKF-97560]
0

The values you see were collected from paper PMC5540273.
